Measured values drawn from the supplement of paper PMC8728848 for this set.

TESTED TARGET: Neu5Ac(a2-6)Gal(b1-4)GlcNAc(b1-3)Gal(b1-4)GlcNAc
TEST PROTOCOL: glycan array binding signal (z-score within array); higher = stronger binding
CONDITION SUMMARY: glycan notation: IUPAC condensed, linker removed
Only a selection was taken, and the strongest signals are over-represented in it overall.
For each entry below, report its glycan array binding signal (z-score) value.

Examples with their reported glycan array binding signal (z-score) follow.
{"columns": ["BINDER", "glycan array binding signal (z-score)"],
 "data": [
  ["CREG (Mus musculus), O88668 (protein) MAARAPELARSLLAALLAPALVALLVSPASGRGGRDHGDWDVDRRLPPLPPREDGPRVARFVTHVSDWGSLATISTIKEVRGWPFADIISISDGPPGEGTGEPYMYLSPLQQAVSDLQENPEATLTMSLAQTVYCRNHGFDPQSPLCVHIMMSGTVTKVNKTEEDYARDSLFVRHPEMKHWPSSHNWFFAKLKISRIWVLDYFGGPKVVTPEEYFNVTLQ", 0.227],
  ["Mermaid2 (Stilbonema majum) (protein) MGSSHHHHHHSSGLVPRGSHMAASGWLRSPQGTVVKLYRRSLSWSKADEFCKDVDGRLVVDRTADMHLFLIKNVLKEKKSRVWVGLRRTAPHSRTWIWSDGTRQNEDDLNTNLWLRDEPNDAAGEEECALFMYSPWEKAWGLNDYLCRGGCRSYQFICEKGIR", -0.49],
  ["rMpL (Macrolepiota procera) (protein) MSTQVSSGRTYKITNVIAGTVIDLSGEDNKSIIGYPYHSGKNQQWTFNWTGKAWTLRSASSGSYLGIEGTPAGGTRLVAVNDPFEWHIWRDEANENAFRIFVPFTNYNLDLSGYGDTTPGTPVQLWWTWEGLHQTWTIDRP", -0.363]
]}

Respectfully, I request glycan array binding signal (z-score) for each entry included below.
1. DCAL1 (Homo sapiens), Q8IZS7 (protein) MVSNFFHVIQVFEKSATLISKTEHIGFVIYSWRKSTTHLGSRRKFAISIYLSEVSLQKYDCPFSGTSFVVFSLFLICAMAGDVVYADIKTVRTSPLELAFPLQRSVSFNFSTVHKSCPAKDWKVHKGKCYWIAETKKSWNKSQNDCAINNSYLMVIQDITAMVRFNI
2. AAA (Anguilla anguilla), Q7SIC1 (protein) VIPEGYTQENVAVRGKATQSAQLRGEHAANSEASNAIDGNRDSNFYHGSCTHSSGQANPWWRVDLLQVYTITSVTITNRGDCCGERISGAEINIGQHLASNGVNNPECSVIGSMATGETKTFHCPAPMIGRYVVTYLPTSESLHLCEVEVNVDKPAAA
3. Tachylectin-2 (Tachypleus tridentatus), TAL2_TACTR (protein) VGGESMLRGVYQDKFYQGTYPQNKNDNWLARATLIGKGGWSNFKFLFLSPGGELYGVLNDKIYKGTPPTHDNDNWMGRAKKIGNGGWNQFQFLFFDPNGYLYAVSKDKLYKASPPQSDTDNWIARATEIGSGGWSGFKFLFFHPNGYLYAVHGQQFYKALPPVSNQDNWLARATKIGQGGWDTFKFLFFSSVGTLFGVQGGKFYEDYPPSYAHDNWLARAKLIGNGGWDDFRFLFF
4. HHL-2 (Homo sapiens), P07307 (protein) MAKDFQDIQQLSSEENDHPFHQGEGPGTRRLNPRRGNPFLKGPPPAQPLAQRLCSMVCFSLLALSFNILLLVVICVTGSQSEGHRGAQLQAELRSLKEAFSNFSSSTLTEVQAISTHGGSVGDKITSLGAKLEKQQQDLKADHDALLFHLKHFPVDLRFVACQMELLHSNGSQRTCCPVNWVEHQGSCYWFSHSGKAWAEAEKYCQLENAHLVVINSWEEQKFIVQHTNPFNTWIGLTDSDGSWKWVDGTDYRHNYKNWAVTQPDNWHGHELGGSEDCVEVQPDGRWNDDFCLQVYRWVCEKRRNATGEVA

-0.203
-0.202
-0.249
-0.539
